// provenance: ChEMBL document CHEMBL1201862

Tested on: HCT-116
experiment.summary: NCI tumour cell line growth inhibition, 48 h
Activity calls are given as the source filed them. No stated cut-off is given here; in the data, active = GI50 up to about 1.1 µM and inactive = higher.
Your reply should match one of these outcome classes. active, inactive

// below: answered compounds
{"compound": "CO/C=C(/C(=O)OC)c1ccccc1Oc1c(F)c(F)c(F)c(F)c1F", "qualitative.label": "inactive"}
{"compound": "CP(=O)(CCSc1ccccc1)c1ccccc1 (stereo not given)", "qualitative.label": "inactive"}
{"compound": "CC(=O)OC(Cc1c(O)c2c(C)cccc2oc1=O)C(C)(C)O (stereo not given)", "qualitative.label": "inactive"}
{"compound": "COC(=O)/C=C1\\CCC2[C@@H](C(=O)CC3[C@]2(C)CCC[C@@]3(C)C(=O)OC)C1C (stereo not given in full)", "qualitative.label": "inactive"}
{"compound": "O=C(O)CCn1cnc2c(S)ncnc21", "qualitative.label": "inactive"}

Record lookup: outcome of this test for Cc1ccc(S(=O)(=O)N/N=C/C(=C/c2ccc(Cl)cc2)CC(/C=N/NS(=O)(=O)c2ccc(C)cc2)=C\c2ccc(Cl)cc2)cc1 ? inactive

Record lookup: outcome of this test for COc1ccc2c(c1)[n+]([O-])c(C(=O)CC(=O)C(=O)Nc1cccc(Cl)c1C)c(C)[n+]2[O-] ? inactive

Record lookup: outcome of this test for Cc1ccccc1/N=C/c1ccc(N(CCC#N)S(=O)(=O)c2ccccc2)cc1 ? inactive
